Catalogue of compounds with associated z-score
- Assay Overview: RPMI8226 myeloma cell viability, profiling panel, resazurin fluorescence, basal, 24 h, PK04 Diversity Set (AID 1180);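 also: RPMI8826 multiple myeloma cell line at 5000 cells per well; test concentration not given here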
- Condition Details: higher = more signal
Quick one: just the number, no unit, thanks!

Here's what some known entries look like.
Compound	z-score
CCN1C(C)=C(C(=O)OC)[C@@H](c2ccccc2)N2C(=O)[C@](O)(C(=O)OC)CC(C(C)=O)=C12	-0.11
CCOC(=O)CCN1C(=O)[C@H]2[C@H]3[C@H](O)[C@H](O)CC(=NNC(=O)OCC)[C@H]3CC[C@H]2C1=O	-0.0651
CC(C)[C@@H](OCc1ccccc1)[C@H](C)C=NO[C@@H](C)c1cn([C@H](CO)Cc2ccccc2)nn1	-1.63

Then this compound:
z-score recorded for this compound, CCOC(=O)[C@H](Cc1ccccc1)NC(=O)CCC1CC(OC(=O)NCc2ccc3c(c2)OCO3)CC2(CCCC(COC(=O)NCCc3ccc(Cl)cc3)O2)O1 (some centres undefined) , is -0.759

====

Catalogue of molecules with associated composite z-score
- Target Or System: Torsin-1A-interacting protein 2 (Homo sapiens) (UniProt Q8NFQ8)
- Sequence (Q8NFQ8 whole entry, looked up): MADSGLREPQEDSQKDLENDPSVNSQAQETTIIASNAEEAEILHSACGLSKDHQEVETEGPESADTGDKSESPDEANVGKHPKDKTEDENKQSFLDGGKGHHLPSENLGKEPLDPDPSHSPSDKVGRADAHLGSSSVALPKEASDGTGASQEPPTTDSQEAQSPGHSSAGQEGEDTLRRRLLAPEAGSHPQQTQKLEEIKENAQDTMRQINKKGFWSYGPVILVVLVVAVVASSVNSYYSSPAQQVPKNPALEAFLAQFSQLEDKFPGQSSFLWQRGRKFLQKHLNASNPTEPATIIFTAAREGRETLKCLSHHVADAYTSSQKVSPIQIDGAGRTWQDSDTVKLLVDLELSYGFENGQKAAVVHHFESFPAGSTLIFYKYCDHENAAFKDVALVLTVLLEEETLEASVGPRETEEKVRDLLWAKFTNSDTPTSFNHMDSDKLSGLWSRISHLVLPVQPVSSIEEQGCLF
- Assay Overview: LULL1 binders on small-molecule microarray, primary screen, cell lysate, human LULL1 lysate, 635/667 nm fluorescence (AID 1092);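 also: probe is lysate of COS7 cells overexpressing human LULL1; score merges per-feature 667 nm fluorescence with signal-to-noise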
- Condition Details: hLULL1 lysate binding, 635 nm fluorescence, higher = more signal
Quick one: just the number, no unit, thanks!

Molecule	composite z-score
CC(C)[C@@H](OCc1ccccc1)[C@H](C)CON=C1[C@H]2CCn3c(=O)n(-c4ccccc4)c(=O)n3[C@H]2[C@H](O)[C@@H]2O[C@H]12	1.56
C=CC[C@@H]1C=C[C@H](ON=CC[C@@H]2C=C[C@H](OC(C)=O)[C@@H](COC(C)=O)O2)[C@@H](CO)O1	1.3
CCOC(=O)[C@H](CC(C)C)NC(=O)CCC1CC(OC(=O)NCCc2ccc(F)cc2)CC2(CCCC(COC(=O)NCCCN3CCCC3=O)O2)O1 (stereo not given in full)	1.26
COC(=O)[C@H](C)NC(=O)CC=C[C@@H](C)[C@@H]1C=C[C@H](O)[C@@H](CO)O1	0.248

Form field, composite z-score with Torsin-1A-interacting protein 2 (Homo sapiens) (UniProt Q8NFQ8), item CC(C)CON=C1C[C@@H](O)[C@@H](O)[C@@H]2[C@@H]3C(=O)N(Cc4ccccc4)C(=O)[C@@H]3CC[C@H]12 : 0.12

Form field, composite z-score with Torsin-1A-interacting protein 2 (Homo sapiens) (UniProt Q8NFQ8), item O=C1C=C[C@@H](O)[C@@H]2[C@@H]3C(=O)N(Cc4ccc5c(c4)OCO5)C(=O)[C@@H]3CC[C@@H]12 : 0.221

====

Catalogue of molecules with associated composite z-score
- Tested on: glycogen synthase kinase-3 (GSK3A per assay name; protocol says GSK3B)
- Assay Overview: GSK3 binders on small-molecule microarrays, primary screen, biochemical, small-molecule microarray, 635 nm fluorescence, GSK3A (AID 1103); also: the record names both GSK3A and GSK3B
- Condition Details: small-molecule microarray binding, fluorescence 635 nm; higher = more signal
Quick one: just the number, no unit, thanks!

Here's what some known entries look like.
In [3]: df
Out[3]:
                  compound_structure_string      quantity_name  measured_number
0  O=C1[C@H]2[C@H]3[C@H](O)[C@H](O)CC(=NOCc4ccccc4)[C@@H]3CC[C@H]2C(=O)N1c1cccc(Oc2ccccc2)c1  composite z-score             0.38
1  O=C1C[C@H](c2ccccc2)[C@H](c2ccc(Br)cc2)O1  composite z-score           -0.826
2  CCOC(=O)CCN1C(=O)[C@H]2[C@H]3[C@H](O)[C@H](O)CC(=NOCC(C)C)[C@@H]3CC[C@H]2C1=O  composite z-score             1.06

Then this molecule:
composite z-score recorded for this molecule, CC(C)(C)N1C(=O)[C@H]2[C@H]3[C@H](O)[C@H](O)CC(=NNC(=O)OCc4ccccc4)[C@@H]3CC[C@H]2C1=O , is 0.554
